Target: Mcl-1 (Homo sapiens)
Construct: myc-Mcl-1 SPOT array & FP; made in house
Sequence (Q07820 with tags, fused parts or gaps): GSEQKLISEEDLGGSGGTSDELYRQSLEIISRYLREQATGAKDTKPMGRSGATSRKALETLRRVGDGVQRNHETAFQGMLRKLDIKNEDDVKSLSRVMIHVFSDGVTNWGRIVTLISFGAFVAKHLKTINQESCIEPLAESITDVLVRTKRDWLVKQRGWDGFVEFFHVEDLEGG
Test: LUMIER full-length protein interaction
Format: binding
Conditions: LUMIER results for Mcl-1; Z-score relative to Gaussian fit of the data; experiment 2, duplicate 1
Description: The LUMIER assay was carried out as previously described with the following modifications. A stable cell line expressing receptor tagged on the N-terminus with Nanoluc luciferase was created (the prey). […] After incubation and washing, luminescence was measured to quantify how much receptor-luciferase was captured by the bait protein. […]
Parameter: z-score 2.1

Record excerpt, results attached:
NOL8 (KYDPSKYCHNLKKIGEDFSNTIPISS) : 2.02
DSN1 (RAKASSLSEELKHFADGLETDGTLQK) : 0.1019
DZIP3 (NGGLLEFHKSLQEIGDKNDHWFDIDP) : 0.307
SIPA1 (TAGLRPGARLLRVCGQTLPSLRPEAA) : -0.03415
BAK1 (SSTMGQVGRQLAIIGDDINRRYDSEF) : 5.961
PRDX4 (LDFTFVCPTEIIAFGDRLEEFRSINT) : -0.006199
GBP6 (NDDTPWIARTLDNLADELTAILSAPA) : -0.81
PRKD3 (IQENVDISTVYQIFADEVLGSGQFGI) : 3.751
C7orf26 (FDHMVPLVEEINRLADELNPLNASQE) : 1.59
ACN9 (LQLHRVLPPDLKSLGDQYVKDEFRRH) : 1.721

[A] EXOC4 (MQTLSELAKSFQDMADRCLLVLHLEV)
[B] P2RX7 (QCPIFRLGDIFRETGDNFSDVAIQGG)
[C] HEXDC (VLELHPGAQRLHIGCDEVYYLGEGEA)
[D] NRN1L (DTIYQGFAECLIRLGDSMGRGGELET)
List items by z-score 2.1 in falling order. Answer by naming the labels in the order asked.
D, A, B, C
(D: 0.005652, A: 0.001659, B: -0.1664, C: -1.0129)
